Some compounds, each annotated with its measured pIC50.
- target system: recombinant HIV-1 RT (Human immunodeficiency virus type 1 group M subtype B, UniProt P04585)
- method notes: HIV-1 RT inhibitory assay (ELISA RT kit, Roche)
- test parameters: IC50 (effective concentration that inhibits 50% of HIV-1 RT), mean of two independent experiments
Just so you know, pIC50 here is -log10 of the concentration in molar units; reply with that number alone.

Solved cases below.
{"compound": "Cc1cc(C)cc(Sc2cc(=O)[nH]c3ccc(Cl)cc23)c1", "pIC50": 6.68}
{"compound": "O=c1cc([S+]([O-])c2ccccc2)c2cc(Cl)ccc2[nH]1 (stereo not drawn)", "pIC50": 5.05}

# next compound below
For O=c1cc(S(=O)(=O)c2ccccc2)c2cc(Cl)ccc2[nH]1 the compound record lists pIC50 as 4.31

====

- target system: recombinant HIV-1 RT (Human immunodeficiency virus type 1 group M subtype B)
- method notes: HIV-1 RT inhibitory assay (ELISA RT kit, Roche)
- test parameters: IC50 (effective concentration that inhibits 50% of HIV-1 RT), mean of two independent experiments
readout kind: IC50 (µM)
Could you give me the number in µM? Just the number is fine.

Solved cases below.
{"molecule": "O=c1cc(Sc2ccccc2)c2cc(Cl)ccc2[nH]1", "unit info": "µM", "IC50": 5.6}
{"molecule": "Cc1cc(C)cc(S(=O)(=O)c2cc(=O)[nH]c3ccc(Cl)cc23)c1", "unit info": "µM", "IC50": 10}
{"molecule": "O=c1cc(Oc2ccccc2)c2cc(Cl)ccc2[nH]1", "unit info": "µM", "IC50": 3}
{"molecule": "Cc1cc(C)cc(Oc2cc(=O)[nH]c3ccc(Cl)cc23)c1", "unit info": "µM", "IC50": 0.15}

# next molecule below
For Cc1cc(C)cc([S+]([O-])c2cc(=O)[nH]c3ccc(Cl)cc23)c1 (centres unmarked) the molecule record lists IC50 as 2.6

====

- target system: recombinant HIV-1 RT (Human immunodeficiency virus type 1 group M subtype B)
- method notes: HIV-1 RT inhibitory assay (ELISA RT kit, Roche)
- test parameters: IC50 (effective concentration that inhibits 50% of HIV-1 RT), mean of two independent experiments
readout kind: IC50

Solved cases below.
{"molecule": "O=c1cc(-c2ccccc2)c2cc(Cl)ccc2[nH]1 [Compound 5a, 6-Chloro-4-phenylquinolin-2(1H)-one]", "IC50": "> 100 µM"}
{"molecule": "O=c1cc(-c2ccccc2Cl)c2cc(Cl)ccc2[nH]1 [Compound 5c]", "IC50": "> 100 µM"}

# next molecule below
For O=c1cc(-c2ccccc2F)c2cc(Cl)ccc2[nH]1 [Compound 5b] the molecule record lists IC50 as > 100 µM
